For each entry below, report its kon value.
biological target: T1, human CD33 extracellular domain (human, UniProt P20138 18-259); assay: BLI Octet, IgG loaded;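 also: IgGs captured on AHC biosensors, exposed to 100 nM antigen for 3 min association then 3 min dissociation in buffer, kinetics fitted with a 1:1 binding model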
T1 construct: soluble monomeric ECD; also called human CD33 ECD; hCD33
Entry rule: numbers only, all in M⁻¹ s⁻¹.

-- ask Which kon value belongs to ADI-11819 IgG (antibody, V domains shown, IgG; also called Ab8) VH: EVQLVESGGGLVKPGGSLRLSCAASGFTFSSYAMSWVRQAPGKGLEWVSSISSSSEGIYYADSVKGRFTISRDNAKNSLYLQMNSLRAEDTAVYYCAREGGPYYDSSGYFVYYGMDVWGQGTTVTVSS VL: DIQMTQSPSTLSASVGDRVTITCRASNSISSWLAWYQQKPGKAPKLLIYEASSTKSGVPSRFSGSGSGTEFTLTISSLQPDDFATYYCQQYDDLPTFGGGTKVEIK ?
-- reply 824000

-- ask Next up: ADI-10164 IgG (antibody, V domains shown, IgG; also called Ab18) VH: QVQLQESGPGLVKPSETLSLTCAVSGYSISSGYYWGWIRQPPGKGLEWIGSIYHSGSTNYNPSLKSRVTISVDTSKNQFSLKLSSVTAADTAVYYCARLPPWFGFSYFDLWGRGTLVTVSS VL: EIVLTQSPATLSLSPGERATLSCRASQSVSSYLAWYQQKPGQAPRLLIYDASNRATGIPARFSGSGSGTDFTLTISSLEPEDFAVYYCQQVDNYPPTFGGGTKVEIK
-- reply 344000

-- ask Item: ADI-10159 IgG (antibody, V domains shown, IgG; also called Ab1; G59) VH: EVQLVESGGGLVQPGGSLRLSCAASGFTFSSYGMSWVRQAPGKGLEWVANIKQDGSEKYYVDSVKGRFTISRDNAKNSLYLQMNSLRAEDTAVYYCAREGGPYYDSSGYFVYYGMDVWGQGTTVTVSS VL: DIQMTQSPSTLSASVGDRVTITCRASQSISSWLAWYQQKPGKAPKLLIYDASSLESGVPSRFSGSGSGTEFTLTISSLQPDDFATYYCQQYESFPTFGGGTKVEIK
-- reply 348000

-- ask Also need Lintuzumab (antibody, V domains shown, IgG; also called lintuzumab IgG) VH: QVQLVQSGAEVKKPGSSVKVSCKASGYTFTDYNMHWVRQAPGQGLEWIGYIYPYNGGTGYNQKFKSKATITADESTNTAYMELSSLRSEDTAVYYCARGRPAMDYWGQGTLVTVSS VL: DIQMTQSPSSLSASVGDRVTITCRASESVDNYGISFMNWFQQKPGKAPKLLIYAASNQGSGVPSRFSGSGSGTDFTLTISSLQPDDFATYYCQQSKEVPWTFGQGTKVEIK , thanks.
-- reply 431000

-- ask Thanks! And ADI-11839 IgG (antibody, V domains shown, IgG; also called Ab28) VH: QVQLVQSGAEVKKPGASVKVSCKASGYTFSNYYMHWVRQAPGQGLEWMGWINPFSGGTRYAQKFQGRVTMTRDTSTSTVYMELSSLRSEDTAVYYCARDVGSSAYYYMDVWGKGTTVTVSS VL: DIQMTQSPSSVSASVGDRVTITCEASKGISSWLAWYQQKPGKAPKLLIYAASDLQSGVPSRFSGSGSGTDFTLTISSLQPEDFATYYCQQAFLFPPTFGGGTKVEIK ?
-- reply 704000

Ref: patent US20220380459A1
